Tested on: corn (Zea mays L.)
assay.procedure: Test Example 1: foliar treatment, growth inhibition rate on 14th day
Format: in vivo
recorded.conditions: active ingredient amount 31 g/ha, 14th day after application, visual, 0 = non-treated, 100 = complete kill
Label yes when Growth inhibition rate (%) Corn is at or above 20%; otherwise label no.

1) CSCCC(=O)Oc1c(C)nn(C)c(=O)c1-c1cc(Oc2cnc3cc(Cl)ccc3n2)ccc1C [Compound 3-50]	no
2) Cc1ccc(Oc2cnc3cc(Cl)ccc3n2)cc1-c1c(OC(=O)CC(C)(C)C)c(C)nn(C)c1=O [Compound 3-53]	no
3) CCCSC(=O)Oc1c(C)nn(C)c(=O)c1-c1cc(Oc2cnc3cc(Cl)ccc3n2)ccc1C [Compound 3-56]	yes
4) C#CCOc1c(C)nn(C)c(=O)c1-c1cc(Oc2cnc3cc(Cl)ccc3n2)ccc1C [Compound 3-77]	yes
5) COCC(=O)Oc1c(C)nn(C)c(=O)c1-c1cc(Oc2cnc3cc(Cl)ccc3n2)ccc1C [Compound 3-45]	yes
6) CCn1nc(C)c(OC(C)=O)c(-c2cc(Oc3cnc4cc(Cl)ccc4n3)ccc2C)c1=O [Compound 3-97]	no
7) Cc1ccc(Oc2cnc3cc(Cl)ccc3n2)cc1-c1c(OC(=O)C(F)(F)F)c(C)nn(C)c1=O [Compound 3-52]	yes
8) C=CCOC(=O)Oc1c(C)nn(C)c(=O)c1-c1cc(Oc2cnc3cc(Cl)ccc3n2)ccc1C [Compound 3-58]	yes
9) COC(=O)CCC(=O)Oc1c(C)nn(C)c(=O)c1-c1cc(Oc2cnc3cc(Cl)ccc3n2)ccc1C [Compound 3-46]	yes
10) Cc1ccc(Oc2cnc3cc(Cl)ccc3n2)cc1-c1c(OC(=O)COc2ccccc2)c(C)nn(C)c1=O [Compound 3-48]	yes
11) COCCOC(=O)Oc1c(C)nn(C)c(=O)c1-c1cc(Oc2cnc3cc(Cl)ccc3n2)ccc1C [Compound 3-55]	yes
12) Cc1ccc(Oc2cnc3cc(Cl)ccc3n2)cc1-c1c(OCOCCCl)c(C)nn(C)c1=O [Compound 3-81]	no
13) Cc1ccc(Oc2cnc3cc(Cl)ccc3n2)cc1-c1c(OC(=O)c2ccccn2)c(C)nn(C)c1=O [Compound 3-51]	yes
14) Cc1ccc(Oc2cnc3cc(Cl)ccc3n2)cc1-c1c(OC(=S)Oc2ccccc2)c(C)nn(C)c1=O [Compound 3-62]	yes
15) Cc1ccc(Oc2cnc3cc(Cl)ccc3n2)cc1-c1c(OC(=S)Sc2ccccc2)c(C)nn(C)c1=O [Compound 3-63]	yes
16) Cc1ccc(Oc2cnc3cc(Cl)ccc3n2)cc1-c1c(OC(=O)C=CCl)c(C)nn(C)c1=O [Compound 3-54]	yes
17) C#CCOC(=O)Oc1c(C)nn(C)c(=O)c1-c1cc(Oc2cnc3cc(Cl)ccc3n2)ccc1C [Compound 3-64]	yes
18) CCOC(=O)C(=O)Oc1c(C)nn(C)c(=O)c1-c1cc(Oc2cnc3cc(Cl)ccc3n2)ccc1C [Compound 3-79]	yes
19) Cc1ccc(S(=O)(=O)Oc2c(C)nn(C)c(=O)c2-c2cc(Oc3cnc4cc(Cl)ccc4n3)ccc2C)cc1 [Compound 3-71]	no
20) Cc1ccc(Oc2cnc3cc(Cl)ccc3n2)cc1-c1c(OC(C)OC(=O)OC2CCCCC2)c(C)nn(C)c1=O (stereo not drawn) [Compound 3-76]	no
21) Cc1ccc(Oc2cnc3cc(Cl)ccc3n2)cc1-c1c(OC(=O)N(C)c2ccccc2)c(C)nn(C)c1=O [Compound 3-66]	yes
22) Cc1ccc(Oc2cnc3cc(Cl)ccc3n2)cc1-c1c(OC(=O)Oc2ccc(F)cc2)c(C)nn(C)c1=O [Compound 3-57]	yes
23) C#CC(=O)Oc1c(C)nn(C)c(=O)c1-c1cc(Oc2cnc3cc(Cl)ccc3n2)ccc1C [Compound 3-82]	yes
24) COCCOCOc1c(C)nn(C)c(=O)c1-c1cc(Oc2cnc3cc(Cl)ccc3n2)ccc1C [Compound 3-75]	no
